system: Trypanosoma cruzi; assay: Antitrypanosomal activity against Trypanosoma cruzi Tulahuen C4 in african green monkey Vero cells after 120 hrs; assay type: functional, organism-based
Test Readout: pIC50
Quick note: pIC50 values are minus log10 of concentrations in mol/L.

API: value(readout= pIC50, system= Trypanosoma cruzi, query= C=CCOc1cc(OC)c(C(=O)/C=C/c2ccc([N+](=O)[O-])cc2)c(OCC=C)c1 )
5.39

How about C=CCOc1cc(OC)c(C(=O)/C=C/c2ccc(C(F)(F)F)cc2)c(OCC=C)c1 ?
4.81

How about C=CCOc1cc(OC)c(C(=O)/C=C/c2ccc(OC)cc2)c(OCC=C)c1 ?
4.67

How about C=CCOc1cc(OC)c(C(=O)/C=C/c2ccncc2)c(OCC=C)c1 ?
5.82

How about C=CCOc1cc(OC)c(C(=O)/C=C/c2ccccc2)c(OCC=C)c1 ?
4.77

How about C=CCOc1cc(OC)c(C(=O)/C=C/c2cc(OCC=C)c(Br)c(OCC=C)c2)c(OCC=C)c1 ?
5.16

How about COc1cc(O)cc(O)c1C(=O)/C=C/c1ccc2c(c1)OCO2 ?
5.03

How about C=CCOc1cc(OC)c(C(=O)/C=C/c2ccco2)c(OCC=C)c1 ?
4.91
